# System: Cell-associated proTGFb1 (hGARP, hLRRC33)
# Assay details: BLI (OCTET), average over cell-associated complexes
# Assay type: binding, human
# Measurement conditions: average KD of (E) and (F), read-out: (G) Cell AVRG
Measured quantity: Kd (nM)
Kindly provide the numeric value in nM only, without the unit symbol.

Prompt: Recall and state the measured Kd for Ab24: proTGFβ1 antibody; VH SEQ ID NO: 132, VL SEQ ID NO: 15 (antibody, V domains shown) VH: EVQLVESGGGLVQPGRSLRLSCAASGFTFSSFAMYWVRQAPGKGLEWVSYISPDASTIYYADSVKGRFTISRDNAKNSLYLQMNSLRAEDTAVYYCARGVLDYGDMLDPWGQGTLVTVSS VL: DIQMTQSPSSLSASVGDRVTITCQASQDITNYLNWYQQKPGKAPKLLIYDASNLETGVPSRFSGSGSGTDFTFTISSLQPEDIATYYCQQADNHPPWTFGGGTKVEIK .
Response: 0.537

Prompt: State its Kd for this molecule: Ab28: proTGFβ1 antibody; VH SEQ ID NO: 136, VL SEQ ID NO: 15 (antibody, V domains shown) VH: EVQLVESGGGLVQPGGSLRLSCAASGFTFSSFSMDWVRQAPGKGLEWVSYISPDASTIYYADSVKGRFTISRDNAKNSLYLQMNSLRAEDTAVYYCVRGVLDYGDMLDPWGQGTLVTVSS VL: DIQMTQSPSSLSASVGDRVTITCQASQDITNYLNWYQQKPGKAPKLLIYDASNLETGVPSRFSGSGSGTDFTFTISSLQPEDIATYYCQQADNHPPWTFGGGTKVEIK
Response: 0.603

Prompt: Provide Kd value for the following molecule: Ab32: proTGFβ1 antibody; VH SEQ ID NO: 140, VL SEQ ID NO: 15 (antibody, V domains shown) VH: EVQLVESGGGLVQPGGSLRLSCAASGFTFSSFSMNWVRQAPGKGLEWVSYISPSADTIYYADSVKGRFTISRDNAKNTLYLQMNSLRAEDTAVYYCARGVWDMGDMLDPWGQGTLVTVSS VL: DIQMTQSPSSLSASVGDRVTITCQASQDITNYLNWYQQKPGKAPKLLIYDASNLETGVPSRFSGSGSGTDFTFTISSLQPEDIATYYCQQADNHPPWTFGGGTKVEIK
Response: 0.597

Prompt: In one line, give reported Kd of the entry Ab30: proTGFβ1 antibody; VH SEQ ID NO: 138, VL SEQ ID NO: 15 (antibody, V domains shown) VH: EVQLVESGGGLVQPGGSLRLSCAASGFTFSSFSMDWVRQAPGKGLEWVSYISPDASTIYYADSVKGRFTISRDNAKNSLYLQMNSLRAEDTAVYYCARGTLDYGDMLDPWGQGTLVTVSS VL: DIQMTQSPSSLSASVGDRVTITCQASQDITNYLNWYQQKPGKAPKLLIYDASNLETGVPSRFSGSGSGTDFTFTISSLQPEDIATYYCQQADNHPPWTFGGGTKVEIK .
Response: 0.684

Prompt: Consider the molecule Ab23: proTGFβ1 antibody; VH SEQ ID NO: 131, VL SEQ ID NO: 15 (antibody, V domains shown) VH: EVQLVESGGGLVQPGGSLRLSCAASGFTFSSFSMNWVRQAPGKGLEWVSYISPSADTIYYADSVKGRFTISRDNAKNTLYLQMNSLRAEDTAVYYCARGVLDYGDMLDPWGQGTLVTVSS VL: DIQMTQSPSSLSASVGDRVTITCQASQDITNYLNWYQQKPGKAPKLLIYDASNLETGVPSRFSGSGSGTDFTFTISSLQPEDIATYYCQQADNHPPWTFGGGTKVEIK . State its measured Kd.
Response: 0.897

Prompt: Report Kd for Ab22: proTGFβ1 antibody; VH SEQ ID NO: 130, VL SEQ ID NO: 15 (antibody, V domains shown) VH: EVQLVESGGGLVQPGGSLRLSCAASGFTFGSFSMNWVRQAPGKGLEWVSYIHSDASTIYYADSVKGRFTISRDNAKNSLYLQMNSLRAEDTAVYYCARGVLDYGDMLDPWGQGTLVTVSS VL: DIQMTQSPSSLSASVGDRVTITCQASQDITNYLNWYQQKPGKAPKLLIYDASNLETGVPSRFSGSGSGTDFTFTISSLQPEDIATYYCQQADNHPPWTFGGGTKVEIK
Response: 0.695

Prompt: Give recorded Kd. Ab27: proTGFβ1 antibody; VH SEQ ID NO: 135, VL SEQ ID NO: 15 (antibody, V domains shown) VH: EVQLVESGGGLVQPGGSLRLSCAASGFTFSFYAMNWVRQAPGKGLEWVSYISPDASTIYYADSVKGRFTISRDNAKNSLYLQMNSLRAEDTAVYYCARGVLDYGDMLDPWGQGTLVTVSS VL: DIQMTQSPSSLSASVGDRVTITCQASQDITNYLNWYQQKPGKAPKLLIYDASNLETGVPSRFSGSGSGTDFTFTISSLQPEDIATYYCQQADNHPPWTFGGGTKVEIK
Response: 0.361
